B1: POU domain, class 3, transcription factor 3, residues 408 to 463; numbered along this chain, P20264 (parent)
chain: KKRTSIEVSVKGALESHFLKCPKPSAQEITNLADSLQLEKEVVRVWFCNRRQKEKR

variants of: B1; experiment: abundance fitness (aPCA) (normalised: wild type 0, dead -1); higher = more abundant; growth selection in yeast, the domain comes from the species named; settings: Homo sapiens
just bin them by abundance fitness: bucket A (below -0.3), bucket B (-0.3 to below -0.09), bucket C (-0.09 or more)

Worked examples follow.
- C48W: bucket B
- A13P: bucket A
- G12Y: bucket C
- K11F: bucket B
- E54K: bucket A

Task: Field: class (abundance fitness) — entry: `K53A`
Result: bucket C

Task: Record `W46R` — which class?
Result: bucket B

Task: # bin label for `S16T`
Result: bucket C

Task: Please classify: `R50L`
Result: bucket A

Task: Which of the defined bands does the recorded abundance fitness of `K20Y` sit within?
Result: bucket A

Task: Lab note: which band did `P22A` land in?
Result: bucket B

Task: Place this variant in its band: `I6K`
Result: bucket C

Task: Record `S9N` — which class?
Result: bucket C

Task: Quick check: band for `G12N`
Result: bucket C

Task: Place this variant in its band: `S16C`
Result: bucket C

Task: Which class holds `S9A` ?
Result: bucket C

Task: Please report the category associated with `I6N` , nothing else.
Result: bucket B

Task: Which bin, given its abundance fitness, does `L32E` occupy?
Result: bucket A

Task: Please report the category associated with `I29M` , nothing else.
Result: bucket C

Task: Hi there! Could you help me figure out the category for `S16L` please?
Result: bucket B

Task: Which band does `L19F` fall in?
Result: bucket A

Task: Band of `R3N` ?
Result: bucket C

Task: Determine which band this variant sits in: `K55T`
Result: bucket B

Task: Please report the category associated with `A26S` , nothing else.
Result: bucket B

Task: Hey, which category is `K55D` in, do you know?
Result: bucket C
